- Tested on: 695427-040-R-J1-PDC complex spheroid viability
- test-description: Anticancer human tumor 695427-040-R-J1-PDC patient-derived colon adenocarcinoma cell line growth inhibition [RAS]
- measurement-setup: curve of first compound; second compound 0.3 µM
measurement-type: IC50

C=CC(=O)Nc1cc(Nc2nccc(-c3cn(C)c4ccccc34)n2)c(OC)cc1N(C)CCN(C)C + CCn1c(-c2cccnc2C(C)OC)c2c3cc(ccc31)N1CCOC(CC(NC(=O)C(C(C)C)N(C)C(=O)C3(F)CCN(C(=O)C#CC(C)(C)N(C)C)CC3)C(=O)N3CCCC(N3)C(=O)OCC(C)(C)C2)C1 | 287 nM
C=CC(=O)N1CCN(c2nc(OCC3CCCN3C)nc3c(F)c(-c4nc(N)cc(C)c4C(F)(F)F)c(Cl)cc23)C(C)C1 (stereo not drawn) + CCn1c(-c2cc(N3CCN(C)CC3)cnc2C(C)OC)c2c3cc(ccc31)-c1csc(n1)CC(NC(=O)C1CC1C)C(=O)N1CCCC(N1)C(=O)OCC(C)(C)C2 | < 3.16 nM

Turning now to a further record.
Prompt: Requested read-out: IC50. Entry: CC(=O)OC12COC1CC(O)C1(C)C(=O)C(O)C3=C(C)C(OC(=O)C(O)C(NC(=O)OC(C)(C)C)c4ccccc4)CC(O)(C(OC(=O)c4ccccc4)C21)C3(C)C (stereo not drawn) + CCn1c(-c2cccnc2C(C)OC)c2c3cc(ccc31)N1CCOC(CC(NC(=O)C(C(C)C)N(C)C(=O)C3(F)CCN(C(=O)C#CC(C)(C)N(C)C)CC3)C(=O)N3CCCC(N3)C(=O)OCC(C)(C)C2)C1
Response: > 10000 nM

---

- Test system: 695427-040-R-J1-PDC complex spheroid viability
- test-description: Anticancer human tumor 695427-040-R-J1-PDC cell line growth inhibition [RAS];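 further: viability read after seven days of drug exposure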;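 on viability, T/C: 100% = DMSO vehicle control viability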
- measurement-setup: second compound 0.3 µM; first compound 0.0316 µM; stronger effect = lower value
- Excerpt: RAS pathway inhibitors in Combinations in Complex Spheroids A high-throughput screen of multi-cell type tumor spheroids was designed to identify active combinations of RAS pathway inhibitors and targeted small molecules. Complex spheroids include a stromal component modeled by human endothelial cells (HUVEC) and fibroblasts modeled by human mesenchymal stem cells (MSCs). […] Compounds. […] If the clinical Cmax for an agent had not been determined, the highest concentration tested was 10 microM. […]
Exercise: state measured viability, T/C for each of the compounds provided.
One number for each entry, in %.

Below, 2 compounds whose answers are already recorded.
Cc1nc(N2CCC3(CC2)COC(C)C3N)c(CO)nc1Sc1ccnc(N)c1Cl (stereo not drawn) + CCn1c(-c2cc(N3CCN(C)CC3)cnc2C(C)OC)c2c3cc(ccc31)-c1csc(n1)CC(NC(=O)C1CC1C)C(=O)N1CCCC(N1)C(=O)OCC(C)(C)C2 | 27.5
C=CC(=O)Nc1cc(Nc2nccc(-c3cn(C)c4ccccc34)n2)c(OC)cc1N(C)CCN(C)C + CCn1c(-c2cccnc2C(C)OC)c2c3cc(ccc31)N1CCOC(CC(NC(=O)C(C(C)C)N(C)C(=O)C3(F)CCN(C(=O)C#CC(C)(C)N(C)C)CC3)C(=O)N3CCCC(N3)C(=O)OCC(C)(C)C2)C1 | 85.7

Prompt: What value of viability, T/C has been reported for the following compound? CCC(CC)c1cc(NC2CCC(N)C2)n2nccc2n1 (stereo not drawn) + CCn1c(-c2cc(N3CCN(C)CC3)cnc2C(C)OC)c2c3cc(ccc31)-c1csc(n1)CC(NC(=O)C1CC1C)C(=O)N1CCCC(N1)C(=O)OCC(C)(C)C2
Response: 29.7
